protocol-details: Pharmacokinetic analysis in rat plasma
Format: in vivo
test-conditions: male, Sprague-Dawley, rat, plasma, po, 100 mg/kg, rat plasma, PO 100 mg/kg, individual rats A, B, C
parameter-measured: AUC(0-inf) (ng·h/mL)
One number for each entry, in ng·h/mL.

Sample CCOc1cc(N(C)C)ccc1C1CC(=O)Nc2cc3c(cc21)OCO3 (stereo not shown) — what was its AUC(0-inf)?
4900

====

protocol-details: Pharmacokinetic analysis in rat plasma
Assay type: in vivo
test-conditions: male, Sprague-Dawley, rat, plasma, iv, 4 mg/kg, rat plasma, IV 4 mg/kg, AVERAGE; read-out: Cmax
parameter-measured: Cmax (ng/mL)
Answers are plain numbers, in ng/mL.

Sample CCOc1cc(N(C)C)ccc1C1CC(=O)Nc2cc3c(cc21)OCO3 (stereo not shown) — what was its Cmax?
552

====

Assign IC50 to each entry below.
experimental-system: LSF (Homo sapiens)
protocol-details: LSF-dependent luciferase reporter assay in NIH 3T3 cells
Assay type: cell-based
Parameters: expressed in transfected cells; host or cells: NIH 3T3
test-conditions: NIH 3T3 cells, dual luciferase; ranges where few concentrations tested; read-out: IC50 (μM) LSF-dependent reporter assat NIH 3T3
One number for each entry, in µM.

1. CCOc1ccccc1[C@H]1CC(=O)Nc2cc3c(cc21)OCO3 [(S)-FQI1] ... 0.8

Sample `CCOc1ccccc1-c1cc(=O)[nH]c2cc3c(cc12)OCO3` — what was its IC50?
0.8

====

protocol-details: Kinetic solubility, turbidity based assay
Type: physicochemical
test-conditions: PBS buffer, 37 °C, pH 7.2, aqueous buffer, kinetic from dmso stock, dry, 1×PBS pH 7.2, 1% DMSO, read-out: kinetic solubility, concentration at which precipitates first showed
parameter-measured: solubility kinetic at 2 h (µM)
Give bare numbers, in µM.

Sample CCOc1cc(N(C)C)ccc1C1CC(=O)Nc2cc3c(cc21)OCO3 (stereo not shown) [FQI-34] — what was its solubility kinetic at 2 h?
150

====

protocol-details: Pharmacokinetic analysis in rat plasma
Type: in vivo
test-conditions: male, Sprague-Dawley, rat, plasma, iv, 4 mg/kg, rat plasma, IV 4 mg/kg, individual rats A, B, C; read-out: Cmax
parameter-measured: Cmax (ng/mL)
One number for each entry, in ng/mL.

Sample CCOc1cc(N(C)C)ccc1C1CC(=O)Nc2cc3c(cc21)OCO3 (stereo not shown) — what was its Cmax?
545

====

experimental-system: LSF (Homo sapiens, UniProt Q12800)
Sequence (Q12800 1-502): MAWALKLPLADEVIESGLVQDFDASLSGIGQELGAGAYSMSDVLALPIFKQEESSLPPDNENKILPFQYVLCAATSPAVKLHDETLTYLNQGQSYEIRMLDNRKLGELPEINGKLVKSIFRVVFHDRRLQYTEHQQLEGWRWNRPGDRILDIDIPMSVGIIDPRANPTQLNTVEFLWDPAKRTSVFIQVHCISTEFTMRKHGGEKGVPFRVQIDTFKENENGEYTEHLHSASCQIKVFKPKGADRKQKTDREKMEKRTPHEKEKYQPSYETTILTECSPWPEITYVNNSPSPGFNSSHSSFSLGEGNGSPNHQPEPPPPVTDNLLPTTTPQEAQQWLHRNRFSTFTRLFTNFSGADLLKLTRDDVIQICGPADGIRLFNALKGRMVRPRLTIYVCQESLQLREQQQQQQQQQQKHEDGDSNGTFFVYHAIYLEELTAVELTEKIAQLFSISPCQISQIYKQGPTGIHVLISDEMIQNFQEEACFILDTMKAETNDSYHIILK
protocol-details: LSF-dependent luciferase reporter assay in NIH 3T3 cells
Assay type: cell-based
Parameters: expressed in transfected cells; host or cells: NIH 3T3
test-conditions: Table 5; read-out: LSF-reporter assay IC50
parameter-measured: IC50 (nM)
Answers are plain numbers, in nM.

Sample CCOc1cc(N(C)C)ccc1C1CC(=O)Nc2cc3c(cc21)OCO3 (stereo not shown) — what was its IC50?
726

====

protocol-details: Pharmacokinetic analysis in rat plasma
Format: in vivo
test-conditions: male, Sprague-Dawley, rat, plasma, iv, 4 mg/kg, IV 4 mg/kg, AVERAGE
parameter-measured: clearance (mL/min/kg)
Answers are plain numbers, in mL/min/kg.

Sample CCOc1cc(N(C)C)ccc1C1CC(=O)Nc2cc3c(cc21)OCO3 (stereo not shown) [FQI-34] — what was its clearance?
73

====

Tested on: A549 cells
protocol-details: Cell proliferation assay (MTS), A549
Format: cell-based
test-conditions: Homo sapiens, 72 h, MTS, read-out: GI50 (μM) A549
parameter-measured: GI50 (µM)
Numbers only, in µM.

Study these solved cases before continuing.
1. CCOc1ccccc1[C@@H]1CC(=O)Nc2cc3c(cc21)OCO3 [(R)-FQI1] ... 18
2. CCOc1ccccc1C1CC(=O)Nc2cc3c(cc21)OCO3 (racemic) ... 6.3
3. CCOc1ccccc1[C@H]1CC(=O)Nc2cc3c(cc21)OCO3 [(S)-FQI1] ... 3

Proceeding to the next compound to report its GI50.
Sample `CCOc1ccccc1-c1cc(=O)[nH]c2cc3c(cc12)OCO3` — what was its GI50?
1.9

====

protocol-details: Pharmacokinetic analysis in rat plasma
Format: in vivo
test-conditions: male, Sprague-Dawley, rat, plasma, po, 100 mg/kg, rat, PO 100 mg/kg, individual rats A, B, C; read-out: % Bioavailability F
parameter-measured: bioavailability (%)
One number for each entry, in %.

Sample CCOc1cc(N(C)C)ccc1C1CC(=O)Nc2cc3c(cc21)OCO3 (stereo not shown) — what was its bioavailability?
21

====

protocol-details: Pharmacokinetic analysis in rat plasma
Type: in vivo
test-conditions: male, Sprague-Dawley, rat, plasma, iv, 4 mg/kg, rat plasma, IV 4 mg/kg, individual rats A, B, C; read-out: Tmax
parameter-measured: Tmax (min)
Numbers only, in min.

Sample CCOc1cc(N(C)C)ccc1C1CC(=O)Nc2cc3c(cc21)OCO3 (stereo not shown) — what was its Tmax?
30

====

protocol-details: Pharmacokinetic analysis in rat plasma
Format: in vivo
test-conditions: male, Sprague-Dawley, rat, plasma, iv, 4 mg/kg, rat plasma, IV 4 mg/kg, individual rats A, B, C
parameter-measured: half-life (min)
Numbers only, in min.

Sample CCOc1cc(N(C)C)ccc1C1CC(=O)Nc2cc3c(cc21)OCO3 (stereo not shown) — what was its half-life?
43.8

====

protocol-details: Pharmacokinetic analysis in rat plasma
Type: in vivo
test-conditions: male, Sprague-Dawley, rat, plasma, po, 100 mg/kg, rat plasma, PO 100 mg/kg, AVERAGE; read-out: Tmax
parameter-measured: Tmax (h)
One number for each entry, in h.

Sample CCOc1cc(N(C)C)ccc1C1CC(=O)Nc2cc3c(cc21)OCO3 (stereo not shown) — what was its Tmax?
2.7

====

protocol-details: Pharmacokinetic analysis in rat plasma
Format: in vivo
test-conditions: male, Sprague-Dawley, rat, plasma, iv, 4 mg/kg, rat plasma, IV 4 mg/kg, AVERAGE
parameter-measured: half-life (min)
Numbers only, in min.

Sample CCOc1cc(N(C)C)ccc1C1CC(=O)Nc2cc3c(cc21)OCO3 (stereo not shown) [FQI-34] — what was its half-life?
48.6

====

protocol-details: Pharmacokinetic analysis in rat plasma
Assay type: in vivo
test-conditions: male, Sprague-Dawley, rat, plasma, iv, 4 mg/kg, rat plasma, IV 4 mg/kg, individual rats A, B, C; read-out: C0
parameter-measured: C0 (ng/mL)
Answers are plain numbers, in ng/mL.

Sample CCOc1cc(N(C)C)ccc1C1CC(=O)Nc2cc3c(cc21)OCO3 (stereo not shown) [FQI-34] — what was its C0?
434

====

protocol-details: Pharmacokinetic analysis in rat plasma
Type: in vivo
test-conditions: male, Sprague-Dawley, rat, plasma, iv, 4 mg/kg, rat plasma, IV 4 mg/kg, AVERAGE; read-out: Tmax
parameter-measured: Tmax (min)
Numbers only, in min.

Sample CCOc1cc(N(C)C)ccc1C1CC(=O)Nc2cc3c(cc21)OCO3 (stereo not shown) — what was its Tmax?
25.2

====

protocol-details: Pharmacokinetic analysis in rat plasma
Assay type: in vivo
test-conditions: male, Sprague-Dawley, rat, plasma, po, 100 mg/kg, rat plasma, PO 100 mg/kg, individual rats A, B, C; read-out: Cmax
parameter-measured: Cmax (µg/mL)
Numbers only, in µg/mL.

Sample CCOc1cc(N(C)C)ccc1C1CC(=O)Nc2cc3c(cc21)OCO3 (stereo not shown) [FQI-34] — what was its Cmax?
0.5

====

protocol-details: Pharmacokinetic analysis in rat plasma
Format: in vivo
test-conditions: male, Sprague-Dawley, rat, plasma, iv, 4 mg/kg, rat, IV 4 mg/kg, AVERAGE; read-out: VDss
parameter-measured: Vd
Hey, just the number and the unit after it is fine.

Sample CCOc1cc(N(C)C)ccc1C1CC(=O)Nc2cc3c(cc21)OCO3 (stereo not shown) — what was its Vd?
5.1 L/kg

====

System: HeLa cells
protocol-details: Cell proliferation assay (MTS), HeLa
Type: cell-based
test-conditions: Homo sapiens, HeLa; Example 7, FIG. 8; read-out: growth inhibition of HeLa Cell Line IC50
parameter-measured: pIC50
Answers are plain numbers, as −log10 of the molar value.

1) COc1ccccc1C1CC(=O)Nc2cc3c(cc21)OC(F)(F)O3 (stereo not drawn) ... 5.06
2) CCOc1ccccc1[C@@H]1CC(=O)Nc2cc3c(cc21)OCO3 [(R)-FQI1] ... 5.10
3) COc1ccc(C2CC(=O)Nc3ccc(OC)cc32)cc1 (stereo not drawn) ... 4.17

Look up pIC50 for the entries below, preserving their order.
1. CCOc1ccccc1[C@H]1CC(=O)Nc2cc3c(cc21)OCO3 [(S)-FQI1]
2. CCOc1ccccc1C1CC(=O)Nc2cc3c(cc21)OC(F)(F)O3 (stereo not drawn)
3. CCOc1ccccc1C1CC(=O)Nc2cc3c(cc21)OCO3 (racemic)

1. 6.52
2. 5.18
3. 6.10
